- Tested on: A498
- procedure text: NCI tumour cell line growth inhibition, 48 h
Calls of active or inactive are those of the source. Cut-off read from the data, not from the text of the source: active = GI50 up to about 1.1 µM and inactive = higher. Starred links: 1 amine or outer side, 2 acyl side, 3 side chain; linkers in the order of their positions; H or OH if unused. Non-standard residues stand in square brackets, D forms with d. Residues, ends and D or L forms follow the SMILES beside them. X41 = CSCCCC(N[*:1])C(=O)[*:2]
Outcome codes: active, inactive

1. O=C(/C=C/c1ccccc1)Oc1ccc(C(=O)/C=C/c2ccccc2)cc1 ... inactive
2. C=CCC(CNC(=O)OCc1ccccc1)OC(=O)OCc1ccccc1 (configuration not stated) ... inactive
3. c1ccc2c(c1)c1c(c3ccccc32)CN2CCCC2C1 (configuration not stated) ... inactive
4. CCc1ccccc1-n1c2nc(=O)n(C)c(=O)c-2nc2ccccc21 ... inactive
5. Oc1c(CN2CCN(c3ccccc3)CC2)cc(Br)c2cccnc12 ... inactive
6. CC(NNC(=O)c1ccncc1)c1cccc(C(F)(F)F)c1 (configuration not stated) ... inactive
7. O=C(O)/C(O)=C1/C=C(c2ccccc2)c2ccccc21 ... inactive
8. CSc1nc(Nc2cccc(C(F)(F)F)c2)c2c(N)nn(C)c2n1 ... inactive
9. Cc1ccc2c(c1)CN(C(=O)CCC(=O)OCc1ccccc1)c1ccc(C)cc1CN2C(=O)CCC(=O)OCc1ccccc1 ... inactive
10. O=C(Nc1ccccn1)c1cc2c(cc1Cl)Sc1nccn1S2(=O)=O ... inactive
11. Nc1cccc2cc(S(=O)(=O)Nc3ccc(C(=O)O)cc3)ccc12 ... inactive
12. CC(C)=CCC/C(C)=C/CC/C(C)=C/C(O)c1ccccc1 (configuration not stated) ... inactive
13. NS(=O)(=O)c1nn2c(Br)c(-c3ccccc3)nc2s1 ... inactive
14. CC[C@@H](CCCC[C@@H]1CC[C@H]2CC(=O)C[C@@H]12)OC ... inactive
15. CSc1nc2c(nc(N)n2C2OCC(O)C(O)C2O)c(=O)[nH]1 (configuration not stated) ... inactive
16. Nc1ccc2c(c1)N(C(=O)c1cc3cc(NC(=O)c4cc5ccccc5o4)ccc3[nH]1)CC2CCl (configuration not stated) ... active
17. COc1cccc(C=O)c1[O-].COc1cccc(C=O)c1[O-].[Zn+2] ... inactive
18. C/C(CC(=O)CCC(=O)Nc1cccc(C(F)(F)F)c1)=N\NC(=O)NN ... inactive
19. NC(CCc1nc(-c2cccc([N+](=O)[O-])c2)cs1)C(=O)O (configuration not stated) ... inactive
20. COC12CCCN1c1ccn(Cc3ccccc3)c(=O)c1C2=O (configuration not stated) ... inactive
21. Clc1ccc(/C=C/c2nc(-c3ccccc3)cn3c2nc2ccccc23)cc1Cl ... inactive
22. C[C@H]1O[C@@H](O[C@H]2[C@@H](O)C[C@H](O[C@H]3[C@@H](O)C[C@H](O[C@H]4CC[C@@]5(C)[C@H](CC[C@@H]6[C@@H]5CC[C@]5(C)[C@@H](C7=CC(=O)OC7)[C@@H](O)C[C@]65O)C4)O[C@@H]3C)O[C@@H]2C)C[C@H](O)[C@@H]1O [GITOXIN] ... active
23. COC(=O)C1=C2SCc3cccc(c3)CSC3=C(C(=O)OC)SC(=C(S2)S1)S3 ... inactive
24. O=c1c2cc([N+](=O)[O-])ccc2n(Cc2ccccc2)n1Cc1ccccc1 ... inactive
25. CC1CCC2C(C)(C)CC3(C)CCC1C23O (configuration not stated) ... inactive
26. C#CCCCOc1ncccn1 ... inactive
27. COc1ccc2c(c1)CCc1cnn(C3OC(COC(C)=O)C(OC(C)=O)C(OC(C)=O)C3OC(C)=O)c1-2 (configuration not stated) ... inactive
28. CC(=O)OC1CCC2(C)C(=CC(C3C=C4CC(OC(C)=O)CCC4(C)C4=C3C3CC5OC6(CCC(C)CO6)C(C)C5C3(C)CC4)C3=C2CCC2(C)C3CC3OC4(CCC(C)CO4)C(C)C32)C1 (configuration not stated) ... inactive
29. O=c1c2ccccc2[nH]c2ccc3c(Cl)n[nH]c3c12 ... inactive
30. CCOC(=O)c1ccc(/N=C\c2ccc(N(CCC#N)CCC#N)cc2)cc1 ... inactive
31. COc1cc2cc3c4c(cc(OC)c(OC)c4c2cc1OC)CCN3C(=O)OCCN1CCNCC1 ... inactive
32. CSCCCC(NC(=O)CNC(=O)C1CCCN1C(=O)C(Cc1ccc(O)cc1)NC(=O)C(Cc1ccccc1)NC(=O)C(CCCNC(=N)N)NC(=O)C(CC(=O)O)NC(=O)C1CCCN1C(=O)C(CC(=O)O)NC(=O)C1CCCN1C(=O)C1CCCN1C(=O)CN)C(N)=O (configuration not stated) (H-GPPDPDRFYPG[X41]-NH2; configuration not given here) ... inactive
33. OCC(S)CS.[Bi] (configuration not stated) ... inactive
34. Cc1cc(OC(=O)c2c(C)cc(OC(=O)c3c(C)cc(O)cc3O)cc2O)cc(O)c1C(=O)O [GYROPHORIC ACID] ... inactive
35. O=c1c2ccccc2nc(-c2cccc([N+](=O)[O-])c2)n1O ... inactive
36. CC(=O)CCNc1ccc(-c2cc(-c3ccc(N(C)C)cc3)nc3ccc4ccccc4c23)cc1 ... inactive
37. CSC1(CC(=O)N2CCCCC2)C(=O)Nc2ccccc21 (configuration not stated) ... inactive
